test: Equilibrium solubility of Forms A, C and P in ethyl acetate; assay type: physicochemical; conditions: 60 °C, organic solvent or mixture, thermodynamic from solid, equilibration 4 h
ENDPOINT: solubility at 4 h (mg/mL)
Write the number in mg/mL without appending the unit.

*Q* Report measured solubility at 4 h; entry is C[C@@]1(O)CC[C@H]2[C@H](CC[C@@H]3[C@@H]2CC[C@]2(C)[C@@H](C(=O)Cn4cc(C#N)cn4)CC[C@@H]32)C1 [Form A]
*A* 31.7

----------
experiment: Equilibrium solubility of Forms A, C and P in ethyl acetate; type: physicochemical; settings: 5 °C, organic solvent or mixture, thermodynamic from solid, equilibration 20 h
ENDPOINT: solubility at 20 h (µg/mL)
Give the value in µg/mL but do not write µg/mL after it.

*Q* Hello, please tell me recorded solubility at 20 h for this one: C[C@@]1(O)CC[C@H]2[C@H](CC[C@@H]3[C@@H]2CC[C@]2(C)[C@@H](C(=O)Cn4cc(C#N)cn4)CC[C@@H]32)C1 [Form P]
*A* 5400

----------
experiment: Equilibrium solubility of Forms A, C and P in ethyl acetate; format: physicochemical; conditions: 25 °C, organic solvent or mixture, thermodynamic from solid, equilibration 20 h
ENDPOINT: solubility at 20 h

*Q* Please give measured solubility at 20 h of the following entry: C[C@@]1(O)CC[C@H]2[C@H](CC[C@@H]3[C@@H]2CC[C@]2(C)[C@@H](C(=O)Cn4cc(C#N)cn4)CC[C@@H]32)C1 [Form P]
*A* 12.6 mg/mL

----------
experiment: Equilibrium solubility of Forms A, C and P in ethyl acetate; type: physicochemical; settings: 15 °C, organic solvent or mixture, thermodynamic from solid, equilibration 2 day
ENDPOINT: solubility at 2 day (µg/mL)
Number in µg/mL, nothing else.

*Q* Look up and report measured solubility at 2 day for this entry: C[C@@]1(O)CC[C@H]2[C@H](CC[C@@H]3[C@@H]2CC[C@]2(C)[C@@H](C(=O)Cn4cc(C#N)cn4)CC[C@@H]32)C1 [Form P]
*A* 8000

----------
experiment: Equilibrium solubility of Forms A, C and P in ethyl acetate; format: physicochemical; settings: 20 °C, organic solvent or mixture, thermodynamic from solid, equilibration 2 day
ENDPOINT: solubility at 2 day (mg/mL)
Your answer is read as mg/mL, so omit the unit and give the number.

*Q* Please indicate solubility at 2 day recorded for C[C@@]1(O)CC[C@H]2[C@H](CC[C@@H]3[C@@H]2CC[C@]2(C)[C@@H](C(=O)Cn4cc(C#N)cn4)CC[C@@H]32)C1 [Form A]
*A* 12.4

----------
assay: Equilibrium solubility of Forms A, C and P in ethyl acetate; format: physicochemical; conditions: 50 °C, organic solvent or mixture, thermodynamic from solid, equilibration 20 h
ENDPOINT: solubility at 20 h
Reply with the number and its unit after it.

*Q* Using known records, supply solubility at 20 h for C[C@@]1(O)CC[C@H]2[C@H](CC[C@@H]3[C@@H]2CC[C@]2(C)[C@@H](C(=O)Cn4cc(C#N)cn4)CC[C@@H]32)C1 [Form A]
*A* 25 mg/mL

----------
assay: Equilibrium solubility of Forms A, C and P in ethyl acetate; assay type: physicochemical; details: 30 °C, organic solvent or mixture, thermodynamic from solid, equilibration 4 h
ENDPOINT: solubility at 4 h (mg/mL)
Please give a number only; it is taken to be in mg/mL.

*Q* Answer with reported solubility at 4 h of C[C@@]1(O)CC[C@H]2[C@H](CC[C@@H]3[C@@H]2CC[C@]2(C)[C@@H](C(=O)Cn4cc(C#N)cn4)CC[C@@H]32)C1 [Form A]
*A* 15.5
